# Tested on: T-Rex 293 cell line SC3 cells lacking increased expression of androgen receptor protein
# assay explanation: Cellular growth inhibition, T-Rex 293 SC3 cells without doxycycline, CellTiter-Glo
# Format: cell-based
# run parameters: 72 h, T-Rex 293 SC3 cells not exposed to doxycycline, CellTiter-Glo 2.0
For each record, write down the corresponding GI50.

line notation: Cc1sc2c(c1C)C(c1ccc(-c3ncc(C4CCN(c5ncc(C(=O)N[C@H]6C(C)(C)[C@H](Oc7ccc(C#N)c(Cl)c7)C6(C)C)cn5)CC4)s3)cc1)=N[C@@H](Cc1ncco1)c1nnc(C)n1-2
measurement label: GI50
test result: < 500 nM

# batch: return GI50 for each of the 2 molecules below
1. Cc1sc2c(c1C)C(c1ccc(OC3CC4(C3)CC3(CCN(c5cnc(C(=O)N[C@H]6C(C)(C)[C@H](Oc7ccc(C#N)c(Cl)c7)C6(C)C)cn5)CC3)C4)cc1)=N[C@@H](C)c1nnc(C)n1-2
2. Cc1sc2c(c1C)C(c1ccc([C@@H]3CC[C@]4(C3)CN(c3ncc(C(=O)N[C@H]5C(C)(C)[C@H](Oc6ccc(C#N)c(Cl)c6)C5(C)C)cn3)CCO4)cc1)=N[C@@H](Cc1ncco1)c1nnc(C)n1-2

Solution:
1. > 3000 nM
2. 500 to 1500 nM

###

# Test system: T-Rex 293 cell line SC3 cells lacking increased expression of androgen receptor protein
# assay explanation: Cellular growth inhibition, T-Rex 293 SC3 cells without doxycycline, CellTiter-Glo
# Assay type: cell-based
# run parameters: 72 h, T-Rex 293 SC3 cells not exposed to doxycycline, CellTiter-Glo 2.0
For each record, write down the corresponding GI50.

For orientation, consider the following solved cases.
molecule: Cc1sc2c(c1C)C(c1ccc(-c3cc(OC4CCN(c5ncc(C(=O)N[C@H]6C(C)(C)[C@H](Oc7ccc(C#N)c(Cl)c7)C6(C)C)cn5)CC4)cs3)cc1)=N[C@@H](Cc1ncco1)c1nnc(C)n1-2 [Compound I-443]
measurement label: GI50
test result: > 3000 nM

molecule: Cc1sc2c(c1C)C(c1ccc(C[C@H]3C[C@@]4(CCCN(c5ncc(C(=O)N[C@H]6C(C)(C)[C@H](Oc7ccc(C#N)c(Cl)c7)C6(C)C)cn5)C4)C3)cc1)=N[C@@H](C)c1nnc(C)n1-2 [Compound I-393]
measurement label: GI50
test result: > 3000 nM

molecule: Cc1sc2c(c1C)C(c1ccc(C[C@H]3CC[C@H]4CN(c5ncc(C(=O)N[C@H]6C(C)(C)[C@H](Oc7ccc(C#N)c(Cl)c7)C6(C)C)cn5)CCN4C3)cc1)=NC(Cc1ncco1)c1nnc(C)n1-2 (stereo partly shown) [Compound I-324]
measurement label: GI50
test result: < 500 nM

molecule: Cc1sc2c(c1C)C(c1ccc(CCOC3CCN(c4ncc(C(=O)N[C@H]5C(C)(C)[C@H](Oc6ccc(C#N)c(Cl)c6)C5(C)C)cn4)CC3)cc1)=NC(Cc1ncco1)c1nnc(C)n1-2 (stereo partly shown) [Compound I-140]
measurement label: GI50
test result: < 500 nM

molecule: Cc1sc2c(c1C)C(c1ccc(OC[C@H]3C[C@@]4(CCCN(c5ncc(C(=O)N[C@H]6C(C)(C)[C@H](Oc7ccc(C#N)c(Cl)c7)C6(C)C)cn5)C4)C3)cc1)=N[C@@H](Cc1ncco1)c1nnc(C)n1-2 [Compound I-234]
measurement label: GI50
test result: 500 to 1500 nM

molecule: Cc1sc2c(c1C)C(c1ccc(N3CCC4(CCCN(c5ncc(C(=O)N[C@H]6C(C)(C)[C@H](Oc7ccc(C#N)c(Cl)c7)C6(C)C)cn5)C4)C3)cc1)=N[C@@H](Cc1ncco1)c1nnc(C)n1-2 (stereo partly shown) [Compound I-632]
measurement label: GI50
test result: > 3000 nM

molecule: Cc1sc2c(c1C)C(c1ccc(CCN3CC4(CCCN(c5ncc(C(=O)N[C@H]6C(C)(C)[C@H](Oc7ccc(C#N)c(Cl)c7)C6(C)C)cn5)C4)C3)cc1)=N[C@@H](Cc1ncco1)c1nnc(C)n1-2 [Compound I-272]
measurement label: GI50
test result: 500 to 1500 nM

molecule: Cc1sc2c(c1C)C(c1ccc(CC3CC4(CCN(c5ncc(C(=O)N[C@H]6C(C)(C)[C@H](Oc7ccc(C#N)c(Cl)c7)C6(C)C)cn5)CC4)C3)cc1)=N[C@@H](Cc1ncco1)c1nnc(C)n1-2 [Compound I-142]
measurement label: GI50
test result: > 3000 nM

# batch: return GI50 for each of the 2 molecules below
1. Cc1sc2c(c1C)C(c1ccc(CN3CCO[C@@H](CNc4ncc(C(=O)N[C@H]5C(C)(C)[C@H](Oc6ccc(C#N)c(Cl)c6)C5(C)C)cn4)C3)cc1)=N[C@@H](Cc1ncco1)c1nnc(C)n1-2 [Compound I-334]
2. Cc1sc2c(c1C)C(c1ccc(-c3ccsc3OC3CCN(c4ncc(C(=O)N[C@H]5C(C)(C)[C@H](Oc6ccc(C#N)c(Cl)c6)C5(C)C)cn4)CC3)cc1)=N[C@@H](Cc1ncco1)c1nnc(C)n1-2 [Compound I-444]

Solution:
1: < 500 nM; 2: > 3000 nM

###

For each record, write down the corresponding GI50.
# System: T-Rex 293 cell line SC3 cells lacking increased expression of androgen receptor protein
# assay explanation: Cellular growth inhibition, T-Rex 293 SC3 cells without doxycycline, CellTiter-Glo
# Assay type: cell-based
# run parameters: 72 h, T-Rex 293 SC3 cells not exposed to doxycycline, CellTiter-Glo 2.0

molecule: CCNC(=O)C[C@@H]1N=C(c2ccc(OCCOCCOC3CCN(c4ncc(C(=O)N[C@H]5C(C)(C)[C@H](Oc6ccc(C#N)c(Cl)c6)C5(C)C)cn4)CC3)c(F)c2)c2c(sc(C)c2C)-n2c(C)nnc21 [Compound I-78]
tested on: T-Rex 293 cell line SC3 cells lacking increased expression of androgen receptor protein
GI50: 1500 to 3000 nM

molecule: Cc1sc2c(c1C)C(c1ccc(N3C[C@H](F)C[C@@H](Nc4ncc(C(=O)N[C@H]5C(C)(C)[C@H](Oc6ccc(C#N)c(Cl)c6)C5(C)C)cn4)C3)cc1)=NC(Cc1ncco1)c1nnc(C)n1-2 (stereo partly drawn) [Compound I-664]
tested on: T-Rex 293 cell line SC3 cells lacking increased expression of androgen receptor protein
GI50: < 500 nM

Now for another entry.
Problem: Report GI50, nothing else, for this molecule: CCNC(=O)C[C@@H]1N=C(c2ccc(OCCOCCOC3CCN(c4ncc(C(=O)N[C@H]5C(C)(C)[C@H](Oc6ccc(C#N)c(Cl)c6)C5(C)C)cn4)CC3)cc2F)c2c(sc(C)c2C)-n2c(C)nnc21 [Compound I-77]
Solution: 500 to 1500 nM
